biological target: APOL1 (Homo sapiens); assay: Multi-Tox Assay (MultiTox-Fluor Multiplex Cytotoxicity Assay in tet-inducible APOL1 T-REx-HEK293 cells; Table 46 does not say which APOL1 variant G0/G1/G2); conditions: IP50 = IC50 for cell proliferation, APOL1 variant not given
Sequence (O14791 whole entry S342G/I384M, form open): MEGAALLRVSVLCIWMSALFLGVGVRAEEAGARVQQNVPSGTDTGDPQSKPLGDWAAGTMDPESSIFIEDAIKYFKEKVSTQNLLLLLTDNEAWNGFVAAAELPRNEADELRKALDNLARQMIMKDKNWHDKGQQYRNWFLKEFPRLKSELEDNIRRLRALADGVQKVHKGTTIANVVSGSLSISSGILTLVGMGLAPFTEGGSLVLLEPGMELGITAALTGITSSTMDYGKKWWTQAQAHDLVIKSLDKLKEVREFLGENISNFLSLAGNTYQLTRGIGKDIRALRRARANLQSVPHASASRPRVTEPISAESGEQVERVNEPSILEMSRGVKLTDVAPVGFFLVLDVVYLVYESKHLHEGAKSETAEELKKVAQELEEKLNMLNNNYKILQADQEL
pIC50: −log10 of the molar value.
MEASURED PARAMETER: pIC50

Sample `C[C@H]1C[C@@]2(C[C@@H](c3cn(Cc4ccc(S(C)(=O)=O)cc4)nn3)N1)OC[C@@H](O)c1cc(Cl)sc12` — what was its pIC50? 6.30 to 7.30

What pIC50 value was documented for this compound, Cc1cc(C2CC3(CC(C)N2)OCCc2cc(Cl)sc23)ncn1 (stereo not drawn) ? > 7.30

GET /values?readout=pIC50&item= Cc1nn(C)cc1[C@@H]1C[C@]2(C[C@H](C)N1)OCCc1cc(Cl)sc12 (racemic) 6.30 to 7.30

Which pIC50 is listed for Cc1ccc([C@@H]2C[C@]3(C[C@H](C)N2)OCCc2cc(Cl)sc23)nn1 (racemic) ? > 7.30

Look up pIC50: `Cc1cc(Cn2cc([C@@H]3C[C@]4(C[C@H](C)N3)OC[C@@H](O)c3cc(Cl)sc34)nn2)ccn1` 6.30 to 7.30

Give its pIC50 value. Item: Cc1cc([C@@H]2C[C@]3(C[C@H](C)N2)OCCc2cc(Cl)sc23)no1 (racemic) > 7.30

Given the entry `COCCOCCn1cc([C@@H]2C[C@]3(C[C@H](C)N2)OCC(F)(F)c2cc(Cl)sc23)nn1` , report its measured pIC50. 6.30 to 7.30

May I ask what pIC50 has been recorded for C[C@@H]1CC2(C[C@H](C)N1)OCCc1c2sc(C(F)(F)F)c1CO (single isomer, unassigned) ? > 7.30

Look at this compound and give its reported pIC50. CC1CC2(CC(C3CC3(F)F)N1)OCCc1cc(Cl)sc12 (single isomer, unassigned) [Compound 212] > 7.30

Return reported pIC50; argument: C[C@H]1C[C@@]2(C[C@@H](c3c[nH]cn3)N1)OCCc1cc(Cl)sc12 (racemic) > 7.30

For the compound `C[C@H]1C[C@@]2(C[C@@H](c3cn(CCCS(C)(=O)=O)nn3)N1)OC[C@@H](O)c1cc(Cl)sc12` , what pIC50 is on record? 6.30 to 7.30

Report pIC50 for COCCn1cc([C@@H]2C[C@]3(C[C@H](C)N2)OCCc2cc(Cl)sc23)cn1 (racemic) please. > 7.30
